# Experimental Details: Noncompartmental pharmacokinetic parameters (Cmax, Tmax, AUC, Racc) in QD and BID cohorts of Form B
# Type: in vivo, human
# Experimental Setup: human, plasma, oral, 300 mg, Compound III; 300 mg QD of Form B; Cohort 2; Day 29; read-out: Tmax (Median)
Readout Name: Tmax (h)
Numbers only, in h.

Determine its reported Tmax: O=C1NCC2(CCCCC2)n2c1cc1cnc(Nc3ccc(N4CCNCC4)cn3)nc12 [Compound III] 4

* * *

# Experimental Details: Pharmacokinetics of Compound I in healthy volunteers after a single dose of Form B of Compound II
# Format: in vivo, human
# Experimental Setup: human, blood, oral, single 400 mg dose of Form B of Compound II
Readout Name: Tmax (h)
Give bare numbers, in h.

Give the measured Tmax for CC(C)N1CCN(c2ccc(Nc3ncc4cc5n(c4n3)C3(CCCCC3)CNC5=O)nc2)CC1 [Compound I] 5
